# reported Kd; entries follow
# assayed-target: T1, CDK9/Cyclin T1 (Homo sapiens, UniProt P50750)
# T1 construct: His; purchased Invitrogen
# T1 sequence (O60563 whole entry partner, one chain of several): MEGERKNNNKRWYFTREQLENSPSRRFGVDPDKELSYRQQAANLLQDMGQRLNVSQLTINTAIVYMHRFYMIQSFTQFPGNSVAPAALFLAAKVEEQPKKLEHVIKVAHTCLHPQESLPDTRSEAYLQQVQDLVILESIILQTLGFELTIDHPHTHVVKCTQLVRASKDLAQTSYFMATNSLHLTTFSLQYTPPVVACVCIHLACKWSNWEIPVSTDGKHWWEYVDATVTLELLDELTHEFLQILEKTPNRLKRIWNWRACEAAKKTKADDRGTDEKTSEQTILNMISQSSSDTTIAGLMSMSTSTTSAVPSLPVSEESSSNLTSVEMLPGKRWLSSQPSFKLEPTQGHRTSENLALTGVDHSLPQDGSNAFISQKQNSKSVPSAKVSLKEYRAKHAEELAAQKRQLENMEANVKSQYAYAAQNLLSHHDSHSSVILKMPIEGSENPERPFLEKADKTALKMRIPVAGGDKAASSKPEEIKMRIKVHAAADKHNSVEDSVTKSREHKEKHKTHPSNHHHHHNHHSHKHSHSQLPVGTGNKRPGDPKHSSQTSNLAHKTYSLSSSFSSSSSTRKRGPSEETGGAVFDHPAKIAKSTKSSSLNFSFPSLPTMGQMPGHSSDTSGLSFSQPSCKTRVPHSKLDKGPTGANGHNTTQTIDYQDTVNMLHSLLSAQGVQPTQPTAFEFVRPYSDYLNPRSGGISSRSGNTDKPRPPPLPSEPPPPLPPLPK
# test-details: LanthaScreen Eu Kinase Binding Assay, CDK9/Cyclin T1
# particulars: tracer 236, read-out: CDK9/Cyclin T1 (activity range), Kd

In the examples that follow, each entry is paired with its recorded Kd.
1) NS(=O)(=O)Cc1cccc(Nc2ncnc(N3CCC[C@@H]3C(F)(F)F)n2)c1
0.1 to 1 µM
2) NS(=O)(=O)Cc1cccc(Nc2ncnc(N3CCc4ncncc4C3)n2)c1
0.1 to 1 µM
3) NS(=O)(=O)Cc1cccc(Nc2ncnc(N3CCNCC3CO)n2)c1 (racemic)
> 10 µM

Task item: Which Kd value is on record for COC[C@H]1CCCN1c1ncnc(Nc2cccc(CS(N)(=O)=O)c2)n1 ?
Reply: < 0.1 µM

====

# assayed-target: CDK2/CyclinA (Homo sapiens)
# Construct: GST
# test-details: LanthaScreen Eu Kinase Binding Assay, CDK2
# particulars: tracer 236, read-out: CDK2 (activity range), Kd
property-measured: Kd

1. COC[C@H]1CCN1c1ncnc(Nc2cccc(CS(N)(=O)=O)c2)n1 [Compound B35]
> 10 µM
2. NS(=O)(=O)Cc1cccc(Nc2ncnc(N3CCc4nc[nH]c4C3)n2)c1 [Compound B44]
< 0.1 µM
3. COC[C@H]1CCCCN1c1ncnc(Nc2cccc(CS(N)(=O)=O)c2)n1 [Compound B5]
> 10 µM

As a next step, examine the molecule that follows.
Task item: Dear colleague, I am looking for the recorded Kd of the following molecule: NS(=O)(=O)Cc1cccc(Nc2ncnc(N3CCCCC3)n2)c1 [Compound B1]
Reply: > 10 µM

====

Measured pKd, listed per entry for reference.
# assayed-target: T1, CDK9/Cyclin T1 (Homo sapiens, UniProt P50750)
# T1 construct: His
# test-details: LanthaScreen Eu Kinase Binding Assay, CDK9/Cyclin T1
# particulars: tracer 236, read-out: CDK9/Cyclin T1 (activity range), Kd
pKd: −log10 of the molar value.

Field: example entries. Status: answers known.
1) NS(=O)(=O)Cc1cccc(Nc2ncnc(N3CCCC3CCc3ccccc3)n2)c1 (racemic)
5.00 to 6.00
2) NS(=O)(=O)Cc1cccc(Nc2ncnc(N3CCC[C@@H]3CO)n2)c1
5.00 to 6.00
3) NS(=O)(=O)Cc1cccc(Nc2ncnc(N3CCC[C@@H]3COCc3ccccc3)n2)c1
6.00 to 7.00

Task item: # get_value(readout='pKd', item= NS(=O)(=O)Cc1cccc(Nc2ncnc(N3CCCC3Cc3ccccc3)n2)c1 (racemic) )
Reply: 6.00 to 7.00

Task item: Consider the compound shown here: NS(=O)(=O)Cc1cccc(Nc2ncnc(N3CCCC(F)(F)C3)n2)c1 What is its recorded pKd?
Reply: 6.00 to 7.00

Task item: What value of pKd has been recorded for this entry: NS(=O)(=O)Cc1cccc(Nc2ncnc(N3CCC[C@H]3CN3CCCC3)n2)c1
Reply: < 5.00

Task item: Name the recorded pKd for NS(=O)(=O)Cc1cccc(Nc2ncnc(N3CCc4ccccc4C3)n2)c1 .
Reply: 5.00 to 6.00

Task item: Which pKd reading was recorded for the compound NS(=O)(=O)Cc1cccc(Nc2ncnc(N3CCc4ncsc4C3)n2)c1 ?
Reply: > 7.00

====

# assayed-target: CDK9/Cyclin K (Homo sapiens)
# Construct: His
# Sequence (P50750 whole entry): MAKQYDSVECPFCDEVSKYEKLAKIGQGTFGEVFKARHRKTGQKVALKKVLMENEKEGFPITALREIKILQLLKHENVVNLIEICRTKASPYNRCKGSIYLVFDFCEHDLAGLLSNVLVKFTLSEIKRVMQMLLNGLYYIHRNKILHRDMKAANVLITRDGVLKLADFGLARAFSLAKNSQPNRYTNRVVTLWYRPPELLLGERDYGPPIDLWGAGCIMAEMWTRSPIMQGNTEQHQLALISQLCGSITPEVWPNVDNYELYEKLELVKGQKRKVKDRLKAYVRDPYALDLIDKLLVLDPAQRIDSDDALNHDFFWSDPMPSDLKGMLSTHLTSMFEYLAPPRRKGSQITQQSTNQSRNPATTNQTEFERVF
# Sequence (O75909 1-357 isoform O75909-1 partner): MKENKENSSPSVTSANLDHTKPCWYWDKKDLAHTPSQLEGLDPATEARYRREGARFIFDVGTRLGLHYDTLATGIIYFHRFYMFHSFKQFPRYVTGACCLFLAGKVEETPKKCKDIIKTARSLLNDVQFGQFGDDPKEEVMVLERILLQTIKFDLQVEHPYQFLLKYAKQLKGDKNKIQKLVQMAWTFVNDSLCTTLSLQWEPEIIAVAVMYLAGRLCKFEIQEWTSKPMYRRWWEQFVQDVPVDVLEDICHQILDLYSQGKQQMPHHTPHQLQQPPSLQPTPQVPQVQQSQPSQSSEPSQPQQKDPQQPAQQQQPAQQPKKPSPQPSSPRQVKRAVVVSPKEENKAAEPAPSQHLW
# test-details: LanthaScreen Eu Kinase Binding Assay, CDK9/Cyclin K
# particulars: tracer 236, read-out: CDK9/Cyclin K (activity range), Kd
# Protocol: This protocol describes how the LanthaScreen Eu Kinase Binding Assay was performed to determine dissociation constants (Kd) of compounds of general formula (I) and CDK/Cyclin complexes. […] Binding of the tracer to the kinase is detected using a Eu-labeled antibody. […] The compounds of general formula (I) summarized in Table 1 were diluted from a 10 mM DMSO stock solution 1:10 in a total volume of 15 μL DMSO. […] Positive and negative controls were calculated from at least 8 different sample wells. […]
pKd: −log10 of the molar value.
property-measured: pKd

1) CN1CCN(c2ncnc(Nc3cccc(CS(N)(=O)=O)c3)n2)CC1
< 5.00
2) NS(=O)(=O)Cc1cccc(Nc2ncnc(N3CCC3c3ccccc3)n2)c1 (racemic)
6.00 to 7.00
3) CC(C)(C)OC(=O)NCC1CCCCN1c1ncnc(Nc2cccc(CS(N)(=O)=O)c2)n1 (racemic)
< 5.00
4) COC[C@H]1CCCCN1c1ncnc(Nc2cccc(CS(N)(=O)=O)c2)n1
6.00 to 7.00

Task item: What value of pKd has been recorded for this entry: NS(=O)(=O)Cc1cccc(Nc2ncnc(N3CCNCC3)n2)c1
Reply: < 5.00

Task item: Looking for the measured pKd of NS(=O)(=O)Cc1cccc(Nc2ncnc(N3Cc4ccncc4C3)n2)c1 , can you help?
Reply: > 7.00

Task item: I would be grateful if you could share the reported pKd for NS(=O)(=O)Cc1cccc(Nc2ncnc(N3CCC[C@@H]3CNc3ccccc3)n2)c1 .
Reply: 5.00 to 6.00

Task item: Which pKd is listed for COC(=O)[C@@H]1CCCN1c1ncnc(Nc2cccc(CS(N)(=O)=O)c2)n1 ?
Reply: < 5.00

Task item: Request the reported pKd associated with NS(=O)(=O)Cc1cccc(Nc2ncnc(N3CCC[C@@H]3c3ccccc3)n2)c1
Reply: > 7.00
